Test system: MDA-MB-231
assaySummary: Growth inhibition of human MDA-MB-231 cells assessed as cell growth at 10^-5 M after 48 hrs by sulforhodamine B assay relative to control
Format: functional
experimentalConditions: MDA-MB-231, 48 h, read-out: Activity
Attribute: growth at 10 µM
Write the answer as a number in %, unit excluded.

>>> print(df.to_string())
                                 itemsmiles     readoutlabel  recordedmeasurement
0  N=c1scc(-c2ccc(Cl)cc2)n1CC(=O)N1CCN(c2ccccc2)CC1  growth at 10 µM                  114

Ask: Looking for the measured growth at 10 µM of `N=c1scc(-c2ccccc2)n1CC(=O)N1CCN(c2ccccc2)CC1` , can you help?
Result: 95

Ask: What measured growth at 10 µM goes with `CN1CCN(C(=O)Cn2c(-c3ccc(Cl)cc3)csc2=N)CC1` ?
Result: 103

Ask: Which value of growth at 10 µM has been reported for `Cc1ccc(-c2csc(=N)n2CC(=O)N2CCN(C)CC2)cc1` in the records?
Result: 83.4

Ask: I would be grateful if you could share the reported growth at 10 µM for `CN1CCN(C(=O)Cn2c(-c3ccccc3)csc2=N)CC1` .
Result: 78.8

Ask: I'd like to know its growth at 10 µM. The compound in question is `N=c1scc(-c2ccc(Cl)cc2)n1CC(=O)N1CCOCC1`
Result: 97.5
